assay: NCI Yeast Anticancer Drug Screen. Data for the sgs1 mgt1 strain (AID 161);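 also: 0% = growth of cultures given vehicle only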; conditions: S. cerevisiae sgs1 mgt1 strain, at 50.0 µM, active compounds read high
The panel holds about 79,000 compounds, 15% with a hit somewhere; the sample as a whole holds those more often.
readout: growth inhibition (%)
Numeric only. Scale: %

Tell me its growth inhibition given "BrC12CC3CC(CC(C3)C1)C2" as the entry.
9.4

Tell me its growth inhibition given CC1C=CCCC1COC(=O)C(=O)OCC1CC=CCC1C (stereo not drawn) as the entry.
28.1

Tell me its growth inhibition given "CN(C)CCCn1c(=O)nc2n(-c3ccccc3)c3ccccc3nc-2c1=O" as the entry.
-10.4

The measured values listed here are drawn from PubChem BioAssay (NCI).
